test-summary: in vitro
Type: cell-based
details: human
readout-name: cytotoxicity at 48 h, 1600 nM

Ask: Return cytotoxicity at 48 h, 1600 nM for the following compound: COc1cccc2c1C(=O)c1c(O)c3c(c(O)c1C2=O)C[C@@](O)(C(=O)CO)C[C@@H]3O[C@H]1C[C@H](N)[C@H](O)[C@H](C)O1
Result: 20%

* * *

test-summary: in vitro
Type: cell-based
details: human
readout-name: viability at 48 h, 800 nM
Don't forget the unit after the number, please.

Ask: Return viability at 48 h, 800 nM for the following compound: COc1cccc2c1C(=O)c1c(O)c3c(c(O)c1C2=O)C[C@@](O)(C(=O)CO)C[C@@H]3O[C@H]1C[C@H](N)[C@H](O)[C@H](C)O1
Result: 83%
